system: MDA-MB-435; test: NCI tumour cell line growth inhibition, 48 h
Reported TGI values for the following compounds.
property: TGI

INSERT INTO assay_data (compound, assay_system, meas_value) VALUES
  ('O=C(CCNC(=O)OCc1ccccc1)OCCCNC(=O)OCc1ccccc1', 'MDA-MB-435', '> 100 µM'),
  ('COC(=O)c1ccccc1C1CN=NC12Cc1c(C)c3c(c(C)c1C2=O)CCC3 (centres undefined)', 'MDA-MB-435', '> 100 µM'),
  ('COc1cccc(NC(=O)c2c(SC)n[nH]c2N)c1', 'MDA-MB-435', '> 100 µM'),
  ('O=c1oc2ccccc2c(O)c1C(c1ccc([N+](=O)[O-])cc1)c1c(O)c2ccccc2oc1=O', 'MDA-MB-435', '> 100 µM'),
  ('CCOc1ccccc1N=NC1C(=O)N(C(=O)CC(=O)Nc2ccccc2Cl)N=C1C (centres undefined)', 'MDA-MB-435', '> 100 µM'),
  ('N#CC1(C#N)C(c2ccccc2)NC23CCCCC2C1(C#N)C(=O)N3 (centres undefined)', 'MDA-MB-435', '> 100 µM'),
  ('N#C/C(=C\N1CCNC1=S)C(=O)c1ccc2ccccc2c1', 'MDA-MB-435', '> 100 µM'),
  ('Cc1nnc2sc(-c3ccc(N)cc3)nn12', 'MDA-MB-435', '> 100 µM'),
  ('Fc1ccc(C(OCCN2CC3CC2CN3CCCc2ccccc2)c2ccc(F)cc2)cc1 (centres undefined)', 'MDA-MB-435', '20.5 µM'),
  ('CNC(=O)OC(C)CN1c2ccccc2Sc2ccccc21 (centres undefined)', 'MDA-MB-435', '> 100 µM'),
  ('c1csc(-c2cc(-c3ccsc3)c(-c3cccs3)s2)c1', 'MDA-MB-435', '> 100 µM'),
  ('COC(=O)c1ccc(/C=N/c2cc(C)nn2-c2ccccc2)cc1', 'MDA-MB-435', '96.6 µM'),
  ('CCCN(CCC)c1ccc(C=O)c(OC)c1', 'MDA-MB-435', '78.9 µM'),
  ('C=C(C)[C@@H]1CC[C@]2(c3ncc(C)o3)CC[C@]3(C)[C@H](CC[C@@H]4[C@@](C)(CCC#N)[C@H](C(=C)C)CC[C@]43C)[C@@H]12', 'MDA-MB-435', '18 µM');

---

system: LOX IMVI melanoma; experiment: NCI tumour cell line growth inhibition, 48 h
property: TGI

INSERT INTO assay_data (compound, assay_system, property, meas_value) VALUES
  ('O=[N+]([O-])/C=C/c1cccc(F)c1', 'LOX IMVI melanoma', 'TGI', '> 100 µM'),
  ('COc1cc2c(C#N)n3c(c2cc1OC)C(=O)C(c1ccccc1)Oc1ccccc1-3 (centres undefined)', 'LOX IMVI melanoma', 'TGI', '> 100 µM'),
  ('CC(=O)OC1CC(C)c2c1ncnc2N1CCN(C(=O)OC(C)(C)C)CC1 (centres undefined)', 'LOX IMVI melanoma', 'TGI', '> 100 µM'),
  ('NC(=O)c1nnc2cc(F)c(F)cc2c1N', 'LOX IMVI melanoma', 'TGI', '> 100 µM'),
  ('CNC(=O)OC(C)CN1c2ccccc2Sc2ccccc21 (centres undefined)', 'LOX IMVI melanoma', 'TGI', '> 100 µM'),
  ('Cn1cc(C=C(C#N)C#N)c(=O)n(C)c1=O', 'LOX IMVI melanoma', 'TGI', '> 100 µM'),
  ('S=C(S)NCCCn1ccnc1', 'LOX IMVI melanoma', 'TGI', '> 100 µM'),
  ('c1ccc2c(c1)[Se]c1ccccc1[Se]2', 'LOX IMVI melanoma', 'TGI', '> 100 µM'),
  ('Cc1ccc(-c2n[nH]c(=O)n2N)cc1', 'LOX IMVI melanoma', 'TGI', '> 100 µM'),
  ('O=C1c2ccccc2C(=O)N1C/C=N/NS(=O)(=O)c1ccc(Cl)cc1', 'LOX IMVI melanoma', 'TGI', '> 100 µM'),
  ('CCOc1ccccc1N=NC1C(=O)N(C(=O)CC(=O)Nc2ccccc2Cl)N=C1C (centres undefined)', 'LOX IMVI melanoma', 'TGI', '> 100 µM'),
  ('Cn1c2nc(=Nc3ccc(Cl)cc3)n3ccc4ccccc4c3c2c(=O)n1-c1ccccc1', 'LOX IMVI melanoma', 'TGI', '> 100 µM'),
  ('CCOC(=O)C1C(=O)CC(C)(O)C(C(=O)OCC)C1c1ccc(O)c(OC)c1 (centres undefined)', 'LOX IMVI melanoma', 'TGI', '> 100 µM'),
  ('CC(C)c1cccc2sc(NC(=O)C(=O)CC(=O)c3ccc(F)cc3)nc12', 'LOX IMVI melanoma', 'TGI', '> 100 µM'),
  ('Cc1cc(C)c(S(=O)(=O)Oc2ccccc2[N+](=O)[O-])c(C)c1', 'LOX IMVI melanoma', 'TGI', '> 100 µM'),
  ('CC(=O)OC1C(O)COC(Oc2c(C)c3c4c(c2O)[C@@H](C)CC[C@@H]4[C@@H](C)C[C@H]3C=C(C)C)C1O (some centres undefined)', 'LOX IMVI melanoma', 'TGI', '35.4 µM'),
  ('CCOc1ccc2c(-c3ccnc(Nc4cccc(C(F)(F)F)c4)n3)cnn2n1', 'LOX IMVI melanoma', 'TGI', '> 25 µM'),
  ('COC(=O)C1=C(O)C(C(=O)OC)[C@@]2(O)[C@@H](C(=O)OC)C(c3ccc(OC(=O)/C(=C/c4ccccc4)c4ccccc4)cc3)C[C@@H]1[C@@H]2C(=O)OC (some centres undefined)', 'LOX IMVI melanoma', 'TGI', '22.5 µM'),
  ('Cc1cc(Cl)ccc1N1C(=O)C(=O)C(c2nc3ccccc3s2)/C(=N\NC(=O)c2ccccc2O)C1=O (centres undefined)', 'LOX IMVI melanoma', 'TGI', '> 100 µM'),
  ('O=c1c2ccccc2c(C=NCCNCCO)c2oc3ccccc3n12', 'LOX IMVI melanoma', 'TGI', '18.4 µM'),
  ('CN(C)CC1CCC(CN(C)C)C1=NO (centres undefined)', 'LOX IMVI melanoma', 'TGI', '> 100 µM'),
  ('COc1ccc(/C=C2/CCOC2=O)cc1', 'LOX IMVI melanoma', 'TGI', '> 100 µM'),
  ('CN1C(=O)c2cccc3c([N+](=O)[O-])ccc(c23)C1=O', 'LOX IMVI melanoma', 'TGI', '18.9 µM'),
  ('O=C(O)c1cc2c3c(c1)[C@H]1C=CC[C@H]1CN3CC1CC=CC21 (some centres undefined)', 'LOX IMVI melanoma', 'TGI', '> 100 µM'),
  ('COc1cc2c3c(n(CCCn4cccn4)c(=O)c2cc1OC)-c1cc2c(cc1C3=O)OCO2', 'LOX IMVI melanoma', 'TGI', '11.1 µM'),
  ('OC(CCN1CCN(CCOC(c2ccc(F)cc2)c2ccc(F)cc2)CC1)c1ccccc1 (centres undefined)', 'LOX IMVI melanoma', 'TGI', '28.2 µM'),
  ('COC(=O)c1c(C)cccc1C1CN=NC12Cc1c(C)cccc1C2=O (centres undefined)', 'LOX IMVI melanoma', 'TGI', '> 100 µM'),
  ('COc1ccc(Oc2nc3cc(C(F)(F)F)ccc3nc2C(C)C)cc1', 'LOX IMVI melanoma', 'TGI', '30.5 µM'),
  ('Cn1c(-c2c(N)n(Cc3ccc(Cl)cc3)c3nc(C#N)c(C#N)nc23)nc2ccccc21', 'LOX IMVI melanoma', 'TGI', '5.68 µM');
